studyTarget: T1, biotinylated WNV NS5 PBM peptide (West Nile virus, also: biotinyl group, end not given here)
T1 construct: bait of the holdup assay; also called 13-mer peptide; source: synthetic peptide (solid phase, Fmoc; Proteogenix)
T1 peptide: RYEDTTLVEDTVL
assayExplanation: holdup assay (automated high-throughput chromatography); biotinylated NS5 PBM peptide as bait against 259 human PDZ domains expressed in E. coli; read-out binding intensity (BI), mean of replicates; BI threshold 0.2 for a significant interaction
Ends that are not written are not given here.
Simple rule here: BI (holdup binding intensity) less than 0.4 is True, otherwise False.

# TODO verify BI (holdup binding intensity) < 0.4 strictly for this binder: PDZ domain-containing protein GIPC3, PDZ domain (holdup construct) (domain or fragment, human, UniProt Q8TF64 112-192, looked up, source: E. coli, PDZome V.2 library, high-throughput expression) EVEVTKTEDALGLTITDNGAGYAFIKRIKEGSIINRIEAVCVGDSIEAINDHSIVGCRHYEVAKMLRELPKSQPFTLRLVQ
True

# strict comparison: is reported BI (holdup binding intensity) < 0.4? input = 26S proteasome non-ATPase regulatory subunit 9, PDZ domain (holdup construct) (domain or fragment, human, UniProt O00233 108-195, looked up, also called PSMD9; source: E. coli, PDZome V.2 library, high-throughput expression) QARDMAEAHKEAMSRKLGQSESQGPPRAFAKVNSISPGSPASIAGLQVDDEIVEFGSVNTQNFQSLHNIGSVVQHSEGKPLNVTVIRR
True

Please check: BI (holdup binding intensity) for MAGUK p55 subfamily member 5, PDZ domain (holdup construct) (domain or fragment, human, UniProt Q8N3R9 256-336, looked up, also called MPP5; source: E. coli, PDZome V.2 library, high-throughput expression) IVRIEKARDIPLGATVRNEMDSVIISRIVKGGAAEKSGLLHEGDEVLEINGIEIRGKDVNEVFDLLSDMHGTLTFVLIPSQ , strictly under 0.4 or not?
True

Answer whether the binder Connector enhancer of kinase suppressor of ras 3, PDZ domain (holdup construct) (domain or fragment, human, UniProt Q6P9H4 211-293, looked up, also called CNKSR3; source: E. coli, PDZome V.2 library, high-throughput expression) EVHLPNIKPGEGLGMYIKSTYDGLHVITGTTENSPADRSQKIHAGDEVIQVNQQTVVGWQLKNLVKKLRENPTGVVLLLKKRP has BI (holdup binding intensity) strictly less than 0.4
True

Does PDZ domain-containing protein 4, PDZ domain (holdup construct) (domain or fragment, human, UniProt Q76G19 130-214, looked up, also called PDZD4; source: E. coli, PDZome V.2 library, high-throughput expression) EVELYKSSHRDKLGLMVCYRTDDEEDLGIYVGEVNPNSIAAKDGRIREGDRIIQINGVDVQNREEAVAILSQEENTNISLLVARP have BI (holdup binding intensity) strictly under 0.4?
True

Consider the binder Microtubule-associated serine/threonine-protein kinase 1, PDZ domain (holdup construct) (domain or fragment, human, UniProt Q9Y2H9 967-1055, looked up, also called MAST1; source: E. coli, PDZome V.2 library, high-throughput expression) PITIQRSGKKYGFTLRAIRVYMGDTDVYSVHHIVWHVEEGGPAQEAGLCAGDLITHVNGEPVHGMVHPEVVELILKSGNKVAVTTTPFE . Is its BI (holdup binding intensity) strictly less than 0.4?
False

In plain terms, does Partitioning defective 3 homolog B, PDZ domain 1 (holdup construct) (domain or fragment, human, UniProt Q8TEW8 201-289, looked up, also called PARD3B_1; source: E. coli, PDZome V.2 library, high-throughput expression) TRTVEISGEGGPLGIHVVPFFSSLSGRILGLFIRGIEDNSRSKREGLFHENECIVKINNVDLVDKTFAQAQDVFRQAMKSPSVLLHVLP come in under 0.4 for BI (holdup binding intensity)?
False

Lab note: BI (holdup binding intensity) threshold 0.4. Does this binder come in strictly under it? PDZ domain-containing RING finger protein 3, PDZ domain 1 (holdup construct) (domain or fragment, human, UniProt Q9UPQ7 249-339, looked up, also called PDZRN3_1; source: E. coli, PDZome V.2 library, high-throughput expression) TLVLHRDSGSLGFNIIGGRPSVDNHDGSSSEGIFVSKIVDSGPAAKEGGLQIHDRIIEVNGRDLSRATHDQAVEAFKTAKEPIVVQVLRRT
True

Please state whether BI (holdup binding intensity) is below 0.4 for FERM and PDZ domain-containing protein 4, PDZ domain (holdup construct) (domain or fragment, human, UniProt Q14CM0 78-155, looked up, also called FRMPD4; source: E. coli, PDZome V.2 library, high-throughput expression) KVEMRRDPVLGFGFVAGSEKPVVVRSVTPGGPSEGKLIPGDQIVMINDEPVSAAPRERVIDLVRSCKESILLTVIQPY
True

Does the reported BI (holdup binding intensity) of the following binder sit strictly below 0.4? Protein piccolo, PDZ domain (holdup construct) (domain or fragment, human, UniProt Q9Y6V0 4496-4590, looked up, also called PCLO; source: E. coli, PDZome V.2 library, high-throughput expression) RIKITRDSKDHTVSGNGLGIRIVGGKEIPGHSGEIGAYIAKILPGGSAEQTGKLMEGMQVLEWNGIPLTSKTYEEVQSIISQQSGEAEICVRLDL
True

Could you please tell me whether BI (holdup binding intensity) recorded for Na(+)/H(+) exchange regulatory cofactor NHE-RF2, PDZ domain 1 (holdup construct) (domain or fragment, human, UniProt Q15599 11-90, looked up, also called NHERF2_1; source: E. coli, PDZome V.2 library, high-throughput expression) LCRLVRGEQGYGFHLHGEKGRRGQFIRRVEPGSPAEAAALRAGDRLVEVNGVNVEGETHHQVVQRIKAVEGQTRLLVVDQ is less than 0.4?
True

Does Membrane-associated guanylate kinase, WW and PDZ domain-containing protein 2, PDZ domain 2 (holdup construct) (domain or fragment, human, UniProt Q86UL8 426-510, looked up, also called MAGI2_2; source: E. coli, PDZome V.2 library, high-throughput expression) STTLKKSNMGFGFTIIGGDEPDEFLQVKSVIPDGPAAQDGKMETGDVIVYINEVCVLGHTHADVVKLFQSVPIGQSVNLVLCRGY have BI (holdup binding intensity) strictly under 0.4?
True

Just wondering, is BI (holdup binding intensity) of Na(+)/H(+) exchange regulatory cofactor NHE-RF2, PDZ domain 2 (holdup construct) (domain or fragment, human, UniProt Q15599 150-230, looked up, also called NHERF2_2; source: E. coli, PDZome V.2 library, high-throughput expression) RLCHLRKGPQGYGFNLHSDKSRPGQYIRSVDPGSPAARSGLRAQDRLIEVNGQNVEGLRHAEVVASIKAREDEARLLVVDP below 0.4?
False

BI (holdup binding intensity) strictly < 0.4 for this binder? PDZ domain-containing protein 7, PDZ domain 3 (holdup construct) (domain or fragment, human, UniProt Q9H5P4 862-934, looked up, also called PDZD7_3; source: E. coli, PDZome V.2 library, high-throughput expression) TVTLSKMKQSLGISISGGIESKVQPMVKIEKIFPGGAAFLSGALQAGFELVAVDGENLEQVTHQRAVDTIRRA
True

hey, is BI (holdup binding intensity) for Membrane-associated guanylate kinase, WW and PDZ domain-containing protein 3, PDZ domain 2 (holdup construct) (domain or fragment, human, UniProt Q5TCQ9 410-492, looked up, also called MAGI3 _2; source: E. coli, PDZome V.2 library, high-throughput expression) RASLKKSTMGFGFTIIGGDRPDEFLQVKNVLKDGPAAQDGKIAPGDVIVDINGNCVLGHTHADVVQMFQLVPVNQYVNLTLCR lower than 0.4 or not?
False

Determine if T-lymphoma invasion and metastasis-inducing protein 2, PDZ domain (holdup construct) (domain or fragment, human, UniProt Q8IVF5 890-976, looked up, also called TIAM2; source: E. coli, PDZome V.2 library, high-throughput expression) DVQLTKTGSVCDFGFAVTAQVDERQHLSRIFISDVLPDGLAYGEGLRKGNEIMTLNGEAVSDLDLKQMEALFSEKSVGLTLIARPPD shows BI (holdup binding intensity) strictly lower than 0.4.
True

Input PDZ and LIM domain protein 1, PDZ domain (holdup construct) (domain or fragment, human, UniProt O00151 3-85, looked up, also called PDLIM1; source: E. coli, PDZome V.2 library, high-throughput expression) TQQIDLQGPGPWGFRLVGGKDFEQPLAISRVTPGSKAALANLCIGDVITAIDGENTSNMTHLEAQNRIKGCTDNLTLTVARSE ; condition: BI (holdup binding intensity) strictly below 0.4. Does it hold?
True

Data credit: paper PMC7865074
